- Read-out: UDP glucuronosyltransferase (UGT1A1), UGT1A1 (gene 54658)
- Experiment: LTEA_HepaRG_UGT1A1: Life Technologies and Expression Analysis (LTEA) Assay for UDP glucuronosyltransferase (UGT1A1) using HepaRG (AID 2283538)
- Experimental Parameters: mRNA level, 48 h; actives raise or lower the signal
Active and inactive are the calls of the source. The calls were made as follows: active = hit-call score of the fitted dose curve at least 0.9, where 1 is the maximum; inactive = score below 0.9.
Assay Metric: AC50

Before answering, review these 6 worked examples.
>>> test_value("CC(=O)O[C@]1(C(C)=O)CC[C@H]2[C@@H]3C=C(Cl)C4=CC(=O)[C@@H]5C[C@@H]5[C@]4(C)[C@H]3CC[C@@]21C")
"72.3 µM (active)"
>>> test_value("CCN(CC)CCOc1ccc(C(=C(Cl)c2ccccc2)c2ccccc2)cc1")
"80.1 µM (active)"
>>> test_value("CC(N)=O")
"inactive"
>>> test_value("CS(=O)(=O)c1ccc([C@@H](C[C@H]2CCC(=O)C2)C(=O)Nc2cnccn2)cc1Cl")
"inactive"
>>> test_value("CC(C)(C)c1ccccc1")
"inactive"
>>> test_value("C/C=C/c1ccc(OC)cc1")
"inactive"

Switching to the query record.
# input What does the data say about its AC50? Entry: NC1CCCCC1
# output inactive

* * *

- Read-out: Tumor necrosis factor (Homo sapiens) (UniProt P01375)
- Sequence (P01375 whole entry, looked up): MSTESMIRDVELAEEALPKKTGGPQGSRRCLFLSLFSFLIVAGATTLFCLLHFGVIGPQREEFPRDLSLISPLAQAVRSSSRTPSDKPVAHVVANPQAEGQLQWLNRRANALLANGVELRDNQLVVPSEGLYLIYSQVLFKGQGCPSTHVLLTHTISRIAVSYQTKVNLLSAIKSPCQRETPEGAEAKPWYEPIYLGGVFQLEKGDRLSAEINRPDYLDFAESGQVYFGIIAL
- Experiment: BSK_LPS_TNFa: BioMAP Diversity Plus: LPS Assay for Tumour Necrosis Factor alpha (TNFa) Biomarker Activity (AID 2283085)
- Experimental Parameters: primary human HUVEC with PBMC; actives raise or lower the signal
Calls of active or inactive are those of the source. Rule for the calls: active = hit-call score of the fitted dose curve at least 0.9, where 1 is the maximum; inactive = score below 0.9.
Please reply with one of these outcomes: active, inactive

Recorded results for 5 compounds are shown here.
>>> assigned_category("CCCCCCCCCCCCCCCCO")
"inactive"
>>> assigned_category("c1ccc2occc2c1")
"inactive"
>>> assigned_category("Nc1nc(Cl)nc2c1ncn2[C@H]1C[C@H](O)[C@@H](CO)O1")
"active"
>>> assigned_category("O=C(O)c1[nH]n(-c2ccc(S(=O)(=O)O)cc2)c(=O)c1N=Nc1ccc(S(=O)(=O)O)cc1")
"inactive"
>>> assigned_category("COC(=O)[C@H]1[C@H]2C[C@@H]3c4[nH]c5cc(OC)ccc5c4CCN3C[C@H]2C[C@@H](OC(=O)c2cc(OC)c(OC)c(OC)c2)[C@@H]1OC")
"active"

# input Fill in: this test's call for CCCCC(CC)CO (configuration not stated) is ___
# output inactive

# input Fill in: this test's call for Nc1nc(=S)c2[nH]cnc2[nH]1 is ___
# output inactive

* * *

- Experiment: APR_HepG2_CellCycleArrest_72hr: Apredica 72-hour HepG2 Assay for Cell Cycle Arrest (AID 2282914)
- Experimental Parameters: high-content imaging, actives raise or lower the signal
Calls of active or inactive are those of the source. How the source made its calls: active means hit-call score of the fitted dose curve at least 0.9, where 1 is the maximum; inactive means score below 0.9.
Please reply with one of these outcomes: 1 (yes) (active), 0 (no) (inactive)

Recorded results for 2 molecules are shown here.
>>> assigned_category("O=C(Oc1ccccc1)c1cccc(C(=O)Oc2ccccc2)c1")
"0 (no)"
>>> assigned_category("O=[Si]=O")
"0 (no)"

# input Fill in: this test's call for Cc1cc(Cc2ccc(N)c(C)c2)ccc1N is ___
# output 1 (yes)

# input Fill in: this test's call for CC(N)=O is ___
# output 0 (no)

# input Fill in: this test's call for Nc1nc(=S)c2[nH]cnc2[nH]1 is ___
# output 1 (yes)

# input Fill in: this test's call for O=C(N[C@@H](c1ccccc1)[C@@H]1CCCCN1)c1cccc(C(F)(F)F)c1Cl is ___
# output 0 (no)

# input Fill in: this test's call for CC(C)NCC(O)c1ccc(O)c(O)c1 (configuration not stated) is ___
# output 0 (no)
